Sourced from ChEMBL document CHEMBL1201862

Biological target: Alkaline phosphatase, tissue-nonspecific isozyme (Homo sapiens)
Sequence (P05186 whole entry): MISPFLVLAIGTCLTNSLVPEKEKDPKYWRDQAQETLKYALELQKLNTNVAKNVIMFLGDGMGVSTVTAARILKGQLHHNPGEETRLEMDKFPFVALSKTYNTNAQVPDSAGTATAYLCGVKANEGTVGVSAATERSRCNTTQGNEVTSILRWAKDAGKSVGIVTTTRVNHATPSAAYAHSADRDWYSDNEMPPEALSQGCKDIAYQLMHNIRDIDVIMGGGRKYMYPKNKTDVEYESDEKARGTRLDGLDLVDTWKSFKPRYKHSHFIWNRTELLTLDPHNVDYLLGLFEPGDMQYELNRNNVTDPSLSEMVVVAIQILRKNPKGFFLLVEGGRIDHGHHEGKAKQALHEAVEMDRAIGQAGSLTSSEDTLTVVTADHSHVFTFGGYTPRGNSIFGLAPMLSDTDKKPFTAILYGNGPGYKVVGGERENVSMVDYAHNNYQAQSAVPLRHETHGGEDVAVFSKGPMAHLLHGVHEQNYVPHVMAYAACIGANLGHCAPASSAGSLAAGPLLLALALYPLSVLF
Test: potency against alkaline phosphatase TNAP – biochemical, luminescent, dose response, SAR follow-up (AID 1056)
Calls of active or inactive are those of the source. Cut-off read from the data, not from the text of the source: actives have a measured IC50 and inactives only a lower limit.
Possible outcomes: 1 for active, -1 for inactive

>>> label("Cc1cc(C)nc(SCC(=O)c2ccc3c(c2)OCO3)n1")
-1
>>> label("COc1ccc(C)cc1S(=O)(=O)Nc1ccc2ccccc2c1")
-1
>>> label("c1ccc(-c2[nH]nc3ccccc23)cc1")
1
>>> label("COc1ccc(OC)c(NCc2cnc3ccccc3c2)c1")
-1
>>> label("COc1ccc(Cc2nc(N)nn2-c2ccccc2)cc1")
-1

---

IC50 values by entry
Molecular target: Apoptotic protease-activating factor 1 (Homo sapiens, UniProt O14727)
Sequence (O14727 whole entry): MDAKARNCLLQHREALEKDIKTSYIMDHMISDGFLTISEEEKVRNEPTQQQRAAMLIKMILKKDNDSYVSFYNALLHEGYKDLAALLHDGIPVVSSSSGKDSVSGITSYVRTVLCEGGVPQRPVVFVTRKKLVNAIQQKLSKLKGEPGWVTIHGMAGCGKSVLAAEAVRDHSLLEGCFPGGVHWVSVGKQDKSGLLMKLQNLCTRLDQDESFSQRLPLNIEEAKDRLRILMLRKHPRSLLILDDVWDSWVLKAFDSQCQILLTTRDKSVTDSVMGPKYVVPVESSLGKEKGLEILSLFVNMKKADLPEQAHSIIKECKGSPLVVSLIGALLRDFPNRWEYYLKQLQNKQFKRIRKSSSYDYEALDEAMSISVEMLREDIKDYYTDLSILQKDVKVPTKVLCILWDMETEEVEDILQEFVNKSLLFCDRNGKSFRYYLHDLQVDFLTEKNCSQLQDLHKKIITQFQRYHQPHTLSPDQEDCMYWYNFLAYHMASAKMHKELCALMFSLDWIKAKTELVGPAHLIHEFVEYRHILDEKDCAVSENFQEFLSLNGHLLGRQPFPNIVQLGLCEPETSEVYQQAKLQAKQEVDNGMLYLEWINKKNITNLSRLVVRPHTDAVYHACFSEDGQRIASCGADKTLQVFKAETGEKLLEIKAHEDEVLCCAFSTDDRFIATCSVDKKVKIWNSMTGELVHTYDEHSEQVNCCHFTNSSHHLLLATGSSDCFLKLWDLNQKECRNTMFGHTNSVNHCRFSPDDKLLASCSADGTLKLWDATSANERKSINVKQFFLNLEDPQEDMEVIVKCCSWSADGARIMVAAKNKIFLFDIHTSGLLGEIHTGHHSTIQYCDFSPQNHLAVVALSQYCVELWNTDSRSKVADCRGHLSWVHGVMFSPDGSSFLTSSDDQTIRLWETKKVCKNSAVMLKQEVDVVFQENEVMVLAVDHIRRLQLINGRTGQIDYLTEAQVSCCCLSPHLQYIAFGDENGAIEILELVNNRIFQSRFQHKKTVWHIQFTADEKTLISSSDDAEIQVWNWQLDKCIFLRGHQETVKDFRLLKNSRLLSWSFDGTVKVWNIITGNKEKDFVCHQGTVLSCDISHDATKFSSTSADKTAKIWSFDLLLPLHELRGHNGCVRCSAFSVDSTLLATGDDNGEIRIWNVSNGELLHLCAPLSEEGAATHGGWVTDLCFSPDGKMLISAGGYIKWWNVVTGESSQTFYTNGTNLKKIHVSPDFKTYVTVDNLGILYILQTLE
Type: functional
Active and inactive are the calls of the source.
assay-readout: IC50

>>> experimental_result("CN1Cc2c(N3CCOCC3)nc3sc(C(=O)c4ccc(Br)cc4)c(N)c3c2CC1(C)C")
"15.8 µM (active)"
>>> experimental_result("O=C(N/N=C1\\C/C(=N\\NC(=O)c2ccncc2)c2ccccc21)c1ccncc1")
"12.8 µM (active)"
>>> experimental_result("COc1ccc(-n2c3nc4ccccc4nc3c3c(=N)oc(C)nc32)cc1")
"19.1 µM (active)"
>>> experimental_result("COc1ccc(-c2nc3nc(C)c(Cc4ccccc4)c(O)n3n2)cc1")
"30.6 µM (active)"
>>> experimental_result("CC(=O)N(Cc1ccc(F)cc1)C1=C(NCCc2ccccc2)C(=O)c2ccccc2C1=O")
"7.39 µM (active)"
>>> experimental_result("CCOC(=O)c1c(CN(C)C)n(C)c2c(O)c(N=NC(N)=O)c3ccc(Br)cc3c12")
"12.1 µM (active)"
